All figures here come from patent US20240010720A1.

Molecular target: T1, human IGSF11 (VSIG3) on cells (human, UniProt Q5DX21 23-431)
T1 sequence: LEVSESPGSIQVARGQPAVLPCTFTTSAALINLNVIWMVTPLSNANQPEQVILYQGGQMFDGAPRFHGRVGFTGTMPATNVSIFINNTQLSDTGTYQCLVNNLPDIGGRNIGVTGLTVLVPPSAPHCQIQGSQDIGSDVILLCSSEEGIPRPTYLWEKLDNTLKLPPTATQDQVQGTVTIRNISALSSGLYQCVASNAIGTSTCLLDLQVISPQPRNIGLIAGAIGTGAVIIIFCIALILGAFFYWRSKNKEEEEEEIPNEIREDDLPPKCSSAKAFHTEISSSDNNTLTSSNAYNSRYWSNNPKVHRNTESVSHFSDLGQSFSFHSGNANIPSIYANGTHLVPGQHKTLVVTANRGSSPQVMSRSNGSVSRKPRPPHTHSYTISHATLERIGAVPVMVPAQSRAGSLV
Assay: FACS, IgG1-format antibodies; DMS 273 cells (D) treated with scrambled control siRNA (SC)
So I've got a bunch of binders here, and I need their percentage binding (FACS heat-map) values.
Field note: include the unit after the figure.

get_value(item= A-012 (IgG1 format) (antibody, V domains shown, human IgG1 format) VH: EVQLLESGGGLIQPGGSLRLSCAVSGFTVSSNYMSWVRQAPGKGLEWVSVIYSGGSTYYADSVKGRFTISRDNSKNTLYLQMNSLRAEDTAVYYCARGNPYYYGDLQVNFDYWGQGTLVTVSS VL: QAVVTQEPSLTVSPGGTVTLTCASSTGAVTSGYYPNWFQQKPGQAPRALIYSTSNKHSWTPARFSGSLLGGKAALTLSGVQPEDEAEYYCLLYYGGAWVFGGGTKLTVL , readout=percentage binding (FACS heat-map)) returns 75.8%

get_value(item= A-027 (IgG1 format) (antibody, V domains shown, human IgG1 format) VH: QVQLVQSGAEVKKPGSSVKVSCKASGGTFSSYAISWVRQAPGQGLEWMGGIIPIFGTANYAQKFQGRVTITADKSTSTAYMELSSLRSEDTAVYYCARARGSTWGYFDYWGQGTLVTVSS VL: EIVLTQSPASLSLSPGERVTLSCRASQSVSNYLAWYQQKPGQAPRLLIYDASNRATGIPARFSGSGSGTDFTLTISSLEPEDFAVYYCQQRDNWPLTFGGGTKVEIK , readout=percentage binding (FACS heat-map)) returns 14.3%

get_value(item= A-011 (IgG1 format) (antibody, V domains shown, human IgG1 format) VH: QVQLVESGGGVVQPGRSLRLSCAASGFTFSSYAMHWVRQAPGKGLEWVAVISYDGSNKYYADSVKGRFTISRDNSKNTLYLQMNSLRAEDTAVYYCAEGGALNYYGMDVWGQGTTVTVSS VL: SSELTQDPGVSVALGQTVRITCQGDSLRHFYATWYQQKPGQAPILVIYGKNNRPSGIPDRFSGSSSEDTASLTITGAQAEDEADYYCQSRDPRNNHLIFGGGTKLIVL , readout=percentage binding (FACS heat-map)) returns 6.95%

get_value(item= B-002 (chain-swapped IgG1) (antibody, V domains shown, human IgG1 format; also called B2) VH: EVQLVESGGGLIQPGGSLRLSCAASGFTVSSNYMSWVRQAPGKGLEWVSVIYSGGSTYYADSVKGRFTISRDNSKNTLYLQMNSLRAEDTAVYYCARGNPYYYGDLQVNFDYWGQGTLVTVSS VL: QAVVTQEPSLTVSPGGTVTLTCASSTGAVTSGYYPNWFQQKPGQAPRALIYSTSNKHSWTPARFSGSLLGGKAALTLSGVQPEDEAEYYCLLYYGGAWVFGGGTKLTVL , readout=percentage binding (FACS heat-map)) returns 80.1%

get_value(item= A-006 (IgG1 format) (antibody, V domains shown, human IgG1 format; also called A-006-like ABP) VH: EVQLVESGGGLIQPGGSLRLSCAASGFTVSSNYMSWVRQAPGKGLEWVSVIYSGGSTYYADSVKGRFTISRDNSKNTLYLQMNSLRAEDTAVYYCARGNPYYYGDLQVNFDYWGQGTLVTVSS VL: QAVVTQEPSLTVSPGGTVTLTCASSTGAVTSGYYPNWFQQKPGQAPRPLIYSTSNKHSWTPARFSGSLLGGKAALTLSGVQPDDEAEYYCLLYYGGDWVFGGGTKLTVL , readout=percentage binding (FACS heat-map)) returns 81.1%

get_value(item= A-026 (IgG1 format) (antibody, V domains shown, human IgG1 format) VH: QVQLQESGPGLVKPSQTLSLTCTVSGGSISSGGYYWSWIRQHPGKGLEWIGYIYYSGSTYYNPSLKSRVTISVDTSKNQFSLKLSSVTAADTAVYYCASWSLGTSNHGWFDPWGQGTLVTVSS VL: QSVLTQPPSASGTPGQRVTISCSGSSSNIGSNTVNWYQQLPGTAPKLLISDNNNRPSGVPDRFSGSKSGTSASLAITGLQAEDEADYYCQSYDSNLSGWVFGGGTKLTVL , readout=percentage binding (FACS heat-map)) returns 64.4%
